Measured values drawn from ChEMBL document CHEMBL1687920 for this set.

- Measured target: Polyunsaturated fatty acid 5-lipoxygenase (Homo sapiens) (UniProt P09917)
- Sequence (whole entry): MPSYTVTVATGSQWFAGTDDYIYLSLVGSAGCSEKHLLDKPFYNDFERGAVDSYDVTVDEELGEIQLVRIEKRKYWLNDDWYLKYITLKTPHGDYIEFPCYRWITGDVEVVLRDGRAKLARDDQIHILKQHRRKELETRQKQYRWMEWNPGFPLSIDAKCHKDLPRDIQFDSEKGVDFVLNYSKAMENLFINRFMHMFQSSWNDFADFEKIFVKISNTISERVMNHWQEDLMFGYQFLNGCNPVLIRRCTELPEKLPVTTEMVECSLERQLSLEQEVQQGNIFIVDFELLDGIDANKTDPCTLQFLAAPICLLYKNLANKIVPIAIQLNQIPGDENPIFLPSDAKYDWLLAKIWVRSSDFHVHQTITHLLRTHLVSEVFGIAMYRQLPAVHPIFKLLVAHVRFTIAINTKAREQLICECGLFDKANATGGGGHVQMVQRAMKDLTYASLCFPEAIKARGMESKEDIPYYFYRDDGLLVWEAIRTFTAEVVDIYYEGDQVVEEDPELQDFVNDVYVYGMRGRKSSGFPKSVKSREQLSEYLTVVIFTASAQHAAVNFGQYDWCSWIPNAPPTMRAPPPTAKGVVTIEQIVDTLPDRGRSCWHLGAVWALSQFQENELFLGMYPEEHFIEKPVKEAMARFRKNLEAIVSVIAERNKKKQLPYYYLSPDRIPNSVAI
- Test summary: Inhibition of 5-lipoxygenase in human neutrophils assessed as residual activity at 30 uM; values are per cent of control
Property measured: residual activity (%)

Answered examples (3):
Chemical structure: FC(F)(F)c1ccc(Cl)c(OCc2ccccc2-c2ccc(-c3cn(CCCc4ccccc4)nn3)cc2)c1
Measured target: Polyunsaturated fatty acid 5-lipoxygenase (Homo sapiens) (UniProt P09917)
U: %
Assay value: 52.7
--
Chemical structure: Cc1ccccc1CCn1cc(-c2ccc(-c3ccccc3COc3cc(C(F)(F)F)ccc3Cl)cc2)nn1
Measured target: Polyunsaturated fatty acid 5-lipoxygenase (Homo sapiens) (UniProt P09917)
U: %
Assay value: 92.1
--
Chemical structure: c1ccc(CCCn2cc(-c3ccc(-c4ccc(Oc5ccccc5)cc4)cc3)nn2)cc1
Measured target: Polyunsaturated fatty acid 5-lipoxygenase (Homo sapiens) (UniProt P09917)
U: %
Assay value: 70.1

(A) O=C(O)c1ccc(Cn2cc(-c3ccc(-c4ccccc4)cc3)nn2)c([N+](=O)[O-])c1
(B) Oc1ccc(-c2ccc(-c3cn(CCCc4ccccc4)nn3)cc2)cc1
Exam item: Input pair: A , B . Output: entry with lower residual activity. Please respond with the label that marks your chosen entry.
Marked response: A
